- EXPERIMENTAL TARGET: human CLDN18.2 (human)
- ASSAY DETAILS: cell-based or functional assay
Catalogue of CDC EC50, NIH-3T3-CLDN18.2 target cells readings, one per entry.
Provide only the numeric value, understood in nM.

BINDER: humanized antibody hz40F6-2.3 (antibody, human IgG1, kappa, V domains shown) VH: QVQLVESGGGVVQPGRSLRLSCAASGFTLTSYGVYWVRQAPGKGLEWVAVVWAGGNTNYADALKGRFTISKDNSKSTLYLQMNSLRAEDTAVYYCARDRGRLLAMDYWGQGTLVTVSS VL: DIVMTQSPDSLAVSLGERATINCKSSQSLLNSGNQKNYLAWYQQKPGQPPKLLIYGASTRESGVPDRFSGSGSGTDFTLTISSLQAEDVAVYYCQNDYFFPFTFGQGTKVEIKR
CDC EC50, NIH-3T3-CLDN18.2 target cells / nM: 0.9

Identify CDC EC50, NIH-3T3-CLDN18.2 target cells associated with the binder humanized antibody hz40F6-1.3 (antibody, human IgG1, kappa, V domains shown) VH: QVQLVESGGGVVQPGRSLRLSCAASGFTLTSYGVYWVRQAPGKGLEWVAVVWAGGNTNYADALKGRFTISKDNSKSTLYLQMNSLRAEDTAVYYCARDRGRLLAMDYWGQGTLVTVSS VL: DIVMTQSPDSLAVSLGERATINCKSSQSLLNSGNQKNYLAWYQQKPGQPPKLLIYGASTRESGVPDRFTGSGSGTDFTLTISSLQAEDVAVYYCQNDHFFPFTFGQGTKVEIKR 0.84
